Would you mind telling me the reported apparent KD of K4 kissing-loop reporter of each entry?
Test system: K4 kissing-loop RNA reporter
Assay: apparent KD of K4 kissing-loop reporter; higher = weaker reporter binding
Settings: Eterna round: R107; input ligand: tryptophan 2.4 mM
All answers are understood in nM, so give the number only.

Q) Reported apparent KD of K4 kissing-loop reporter, sequence GCGAACAUUCGCAGUGAUGUUGCGACGGAAGGAGCGCGUGAAAACGCAGGUAGGUCGCCGACAACAUUAAUUUUAAUGUGUUCGC [Arginine A K4 28] : ____
A) 256

Q) Fill in the blank: the reported apparent KD of K4 kissing-loop reporter of AACCACUCGUUACAUCACUAUCGAGUGGAACGAGGACCGGUACGGCCGCCACUCGAUAAGAUGCAGUGAUGUUGCAUCUAAGAAU [KL-SSTryp-A (BrourdMod)5 #dotplot2 strengthened] is ____.
A) 141

Q) Can you share its apparent KD of K4 kissing-loop reporter? I mean this sequence: UUAAGGGUCCGAGGAUAUCUCCCAGUGAUGUUGGGCGAUACGGCCCUUAAGACUAAUGGUUGAAGGAGAGAAGGCGGCUCCCGAU [Edmaisle]
A) 112

Q) Can you share its apparent KD of K4 kissing-loop reporter? I mean this sequence: AUACGUUUCAGAGGAUAUCGGAGGAGAGUGAUGUUCUCCCAUAGCCCAGUGAUGUUGGAAGCUAUCCGAGAAGGCUGUGGGCGUA [Same State FMN B GF 15]
A) 179

Q) Param item = UGUCAUUGGUCGGCCGCCACUAUAAUAAAAGAGUGAUGUUCUAAAAGACGGACAAAAGUCUGUCGUAGGACCGGGACCGAUGACU [TrypBS 26 #SwitchBubble #StaticStem] ; retrieve measured apparent KD of K4 kissing-loop reporter.
A) 455

Q) So what does the record say about apparent KD of K4 kissing-loop reporter for GUAUGUGGAAACACGUACUUAUAUCCUAAGCAGGAUAUGCGGAAACGCAGAAGGGCUACCAACGAGUUUACCCAGUGAUGUUGGG [Ex FMN A 14] ?
A) 296

---

System: MS2 coat protein
Assay: apparent KD of MS2 coat protein; designed switch direction (-1 OFF switch, 1 ON switch): -1; higher = weaker reporter binding
Settings: input ligand: FMN 200 uM
Assignment: determine reported apparent KD of MS2 coat protein for the given sequences.
Your answer should be a plain number; it is taken to be in nM.

Q) Which apparent KD of MS2 coat protein reading was recorded for the sequence GGUACUCAAAGAGUACCAAUACGAACAUGAGGAUCACCCAUGUAGGAUAUGCUACUCAAAGAGUAGCAGAAGGACAUGUGCCUU [Far Half Aptamer v5] (Eterna round: R96, puzzle: Exclusion NG 3) ?
A) 254

Q) What apparent KD of MS2 coat protein value was documented for this sequence, CAGUACUGAGGAUAUACAUGAGGAUCACCCAUGUUGAGAUGAAAAGAAAUAGUUUCAUGUAGAAGGCGGUGCUG [JR_Ex3_Sub048] (Eterna round: R97, puzzle: Exclusion 3) ?
A) 365

Q) What measured apparent KD of MS2 coat protein goes with CCGGAAAGGAAGGAUAUGCUAGACGAUAGUCUAGCAGAAGGUCCUACAUGAGGAUCACCCAUGUGGUCCUCCGG [Mat - Exclusion 6 - Eli Mod - D33] (Eterna round: R97, puzzle: Exclusion 6) ?
A) 274

Q) Quick check: apparent KD of MS2 coat protein of GCUCGCGGGCAAGGAUAUCCUACGCUGUUCUGGCUCGUGUCUGUUACAUGAGGAUCACCCAUGUGGGAGAAGGUGCACCAGGGC [Design 47] (Eterna round: R96, puzzle: Exclusion NG 2) ?
A) 24.9

Q) Please give the measured apparent KD of MS2 coat protein for this sequence: AGUCCGUCAGGAUAUGCAAUUGUGGACAUGAGGAUCACCCAUGUAACGUGGGCAUGGUUUGUAGAAGGGACGUGCA [EX5 #92] (Eterna round: R97, puzzle: Exclusion 5)
A) 129

---

Test system: MS2 coat protein
Assay: apparent KD of MS2 coat protein; higher = weaker reporter binding
Settings: Eterna round: R107; input ligand: tryptophan 2.4 mM
So I've got a bunch of sequences here, and I need their apparent KD of MS2 coat protein values.
Express the result in nM but write the number alone.

Q) Would you kindly share the measured apparent KD of MS2 coat protein for ACAUGAGGAUCACCCAUGUGCCGUCUUGAUACCAGACGCGAAGUAGUCCCUUGGCAGCAACUACGUGACGGUCGCGCAUGUGUAG [bcxmullin] ?
A) 16.1

Q) Entry under review: CCGAACAUGAGGAUCACCCAUGUUAGGGAUACCAGCUCAGACAUGGGCCCUUGGCAGCUCUAUAGCUGACGAAAGUCAGCAUCGG [#15 SameState-TheophyllineA] . Reported apparent KD of MS2 coat protein?
A) 35.4

Q) What does the record list as apparent KD of MS2 coat protein for AAGACGGUCGGAAGGAGCGGUACAUGAGGAUCACCCAUGUAUUCCUGGGCAUCCGUAGUGUGCCAGGUAGGUCGCCGAUUGCGGG [XArg-B13] ?
A) 40.9

---

System: K4 kissing-loop RNA reporter;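 note: bound reporter read as fluorescence of individual clusters on recovered sequencing chips by microscopy, with normalized cluster intensities fitted with a binding model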
Test: apparent KD of K4 kissing-loop reporter; higher = weaker reporter binding
Conditions: Eterna round: R107; input ligand: arginine 13.2 mM
Attribute Measured: apparent KD of K4 kissing-loop reporter (nM)
Reply numerically in nM, unit not repeated.

Q) Suppose we examine the sequence UCCUAGGCUCGAAAGAGCCUAGGAUUAUCUCAGGAUAUCCGGAAACGGAGAAGGGAGAAACUAGUGAUGUUAGGGAUUCCCUCUU ; what apparent KD of K4 kissing-loop reporter value has been reported?
A) 110

Q) Which value of apparent KD of K4 kissing-loop reporter has been reported for GCCGUACGCAUGGAUACCAGCACUCGUUGAGUGAUGUUCACGAGGUGGUAUUCGACGGGCUGCCCUUGGCAGCCAUGCGUACGGC in the records?
A) 87.3

Q) Need apparent KD of K4 kissing-loop reporter of AGUGAUGUAUGGCGGUGUGUCGCUUAAAAUCAGGAUAUAUAAACAAAUAGAAGGGAUGGCGGAGUGAUGUUCCGCCGGCCGCCAU [FMN A Exl V2] , thanks.
A) 118

Q) Need apparent KD of K4 kissing-loop reporter of GUGAGGAUCCGAAGGAGCGUCCGCAAUCCAGUGAUGUUGGGUGUUGGUUAUAUUUAACGAGGACAGGUAGGUCGCGGAUUUUCAA [Same State Arginie B GF 22] , thanks.
A) 126

Q) # lookup: apparent KD of K4 kissing-loop reporter of GGUGUUGUUUGUGCUGUUUUCUUCGUUUCUCGAGGACCGGUACGGCCGCCACUCGAGUGAUGUUUGGGUAGCGAUGUUUGUUAGU [Bdazzled - #3 - Exc. Tryptophan A]
A) 287

Q) What does the record list as apparent KD of K4 kissing-loop reporter for UUUAAACAUAGUGAUGUUAUGUAACAAUGACGAGGACCGGUACGGCCGCCACUCGAGAGAGAUAAUGAUAAAAUAAAUAAUUUUC [#09 K4 Tryptophan A Same State] ?
A) 111

Q) # lookup: apparent KD of K4 kissing-loop reporter of GGAUCCACCAGUGAUGUUGGAGAAAACUUCAAGGAUAUGACGAAAGUCAGAAGGUGGUAGACUGGGCAAAGUCCGGUCGGAUCCA [FmnA10 U29+G66]
A) 228

Q) # query: apparent KD of K4 kissing-loop reporter of entry UGUAUGUGAUUUGAUACCAGACCAGCUGGUGGUACCUGAGUGAUGUUCGGGAUGGUUUGGGUCCCUUGGCAGCAAAUCGCAUACU [KL-SSTheoB20]
A) 144

Q) apparent KD of K4 kissing-loop reporter for CCAUCGCUAUUCGAUACCAGCCAAGAGGUCUUUGGCCUCUUAAUGGAGUGAUGUUCCAUUGGCCCUUGGCAGCGAAUAGUGAUGG [Theophylline B K4 18] ?
A) 489

Q) Reported apparent KD of K4 kissing-loop reporter, sequence UUACUGCCCAGUGAUGUUGGGUAUCGGCGGCGAGGACCGGUACGGCCGCCACUCGGCGCACAGGCGGAGUGAUGUUUCGCUUAAA [Same State Tryptophan A GF 12] : ____
A) 539

Q) Requested read-out: apparent KD of K4 kissing-loop reporter. Entry: GUCCAACCUGGAGGAUAUCUGCUGUCCAGUGAUGUUGGACACCUUAGUAAAGGCCGGGUAGCCCGCAGAGAAGGCCGGAGUUGCC [Isateron]
A) 354

Q) Quick one: apparent KD of K4 kissing-loop reporter of UGACUGGACUGAAGGAGCGCGCGAGACAAAGUCUCGAACUCUUAGUGAUGUUAGGAAAUAACGCAGGUAGGUCGCAGUCUAGUCU ?
A) 247

---

Test system: MS2 coat protein
Experiment: apparent KD of MS2 coat protein; higher = weaker reporter binding
Details: Eterna round: R107; input ligand: theophylline 20 uM
Task for the reader: assign each of the following sequences its reported apparent KD of MS2 coat protein.
Provide the reading as a plain figure in nM.

Q) Bench note: what apparent KD of MS2 coat protein did UGUACCUAGUCGGCCGCCACUCCAAAAGGAGAGGAUCACCCUCCUAAACGAGUCAAAGACUCGAGGAGGACCGGGACUAGGUACU [Palindromic MS2 #AlternativeMS2 #Palindrome #StaticStem] show?
A) 41.8

Q) // apparent KD of MS2 coat protein lookup, key: AUAACAUGAGGAUCACCCAUGUAAGCAGAUACCAGCUAGGAAACUAGCCCUUGGCAGCUGCAAGGUGAUCCUGCUGCCAAGGUAU [(M1)-(M2)-(T1)-(T2)-(M)'-(T)'_Design7]
A) 187

Q) What does the data say about its apparent KD of MS2 coat protein? Entry: GCAAUACAUGAGGAUCACCCAUGUGCAGAUACCAGAGGUGUAUGCCUCCCUUGGCAGCUGCGACGCUCUGGCAUCUUGUGGGAUG [Same State Theophylline A GF19]
A) 73.7
